# system name: Ribosomal protein S6 kinase alpha-3 (Homo sapiens, UniProt P51812, T493M)
# experiment summary: Inhibition of RSK2 C-terminal kinase domain T493M mutant expressed in Escherichia coli preincubated for 30 mins
measured endpoint: IC50

molecule Cc1ccc(-c2cn(CCCO)c3ncnc(N)c23)cc1 , IC50 observed: > 30 µM

---

Reported pIC50 values are given for each entry in this list.
# system name: Tyrosine-protein kinase Fyn (Homo sapiens, UniProt P06241, V285C)
# Sequence (P06241 2-537 V285C limits assumed): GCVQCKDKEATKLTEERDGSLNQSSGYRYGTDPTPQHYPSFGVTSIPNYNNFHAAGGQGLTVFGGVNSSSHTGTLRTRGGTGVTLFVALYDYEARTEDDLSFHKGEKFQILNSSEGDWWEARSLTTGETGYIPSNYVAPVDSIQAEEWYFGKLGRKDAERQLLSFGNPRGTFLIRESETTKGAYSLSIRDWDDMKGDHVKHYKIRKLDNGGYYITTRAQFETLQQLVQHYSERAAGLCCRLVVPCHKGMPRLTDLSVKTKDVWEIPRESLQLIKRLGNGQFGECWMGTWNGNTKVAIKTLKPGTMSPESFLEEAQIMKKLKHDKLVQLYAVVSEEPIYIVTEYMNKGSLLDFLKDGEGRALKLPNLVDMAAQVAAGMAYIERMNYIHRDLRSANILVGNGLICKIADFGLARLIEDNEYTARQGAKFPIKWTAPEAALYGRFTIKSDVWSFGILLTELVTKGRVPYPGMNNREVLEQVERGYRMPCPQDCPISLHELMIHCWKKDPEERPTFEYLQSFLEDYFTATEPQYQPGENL
# experiment summary: Inhibition of FYN Val285Cys mutant expressed in Escherichia coli
pIC50 here is simply -log10 of the concentration when that concentration is written in mol/L.

Lab note: Cc1ccc(-c2c(C(=O)CCl)n(CCCO)c3ncnc(N)c23)cc1 gave pIC50 of 7.00

get_value(item= Cc1ccc(-c2c(C(=O)CF)n(CCCO)c3ncnc(N)c23)cc1 , readout=pIC50) returns 9.00

Every entry's value here was drawn from ChEMBL document CHEMBL1152818.
